- testProtocol: Pharmacokinetic study in rats
- conditionParameters: SD (Sprague-Dawley), rat, plasma, oral, 20 μmol/kg, Plasma concentration Rat1, SD rats, intragastric 20 μmol/kg, 1440 min, Rat1
Structures can show the parent of a compound that is named as a salt.
readoutName: concentration at 1440 min (nM)
Please respond with the number in nM and leave the unit unwritten.

Q. Entry CNC(=O)c1ccc(-c2cnc3ncc(Cc4ccc5ncccc5c4)n3n2)cc1F [INCB28060 hydrochloride] : reported concentration at 1440 min = ?
A. 8.08

---

- testProtocol: Pharmacokinetic study in rats
- conditionParameters: SD (Sprague-Dawley), rat, plasma, oral, 20 μmol/kg, Plasma concentration Mean, SD rats, intragastric 20 μmol/kg, 60 min, mean of 3 rats
Counter-ions that a name gives are not always drawn.
readoutName: concentration at 60 min
Write the numeric value and follow it with the unit.

Q. Entry CNC(=O)c1ccc(-c2cnc3ncc(Cc4ccc5ncccc5c4)n3n2)cc1F [INCB28060 hydrochloride] : reported concentration at 60 min = ?
A. 910 nM
